Quick reference for minimal inhibitory concentration (MIC), SH 105 among some compounds
# Test system: Staphylococcus haemolyticus 105
# methodNotes: MIC, standard broth micro-dilution assay, SH 105
# Format: cell-based
# Protocol: The antibacterial efficacy of the present compounds is illustrated by Table III. The minimal inhibitory concentrations (MICs) were determined using a standard broth micro-dilution assay.
Please give only the number in your answer, with no unit.

Below, each entry is followed by its recorded minimal inhibitory concentration (MIC), SH 105 result.
>>> number("CC1OC(OC2c3ccc(c(Cl)c3)Oc3cc4cc(c3OC3OC(CO)C(O)C(O)C3OC3CC(C)(NCc5ccc(-c6ccccc6)cc5)C(O)C(C)O3)Oc3ccc(cc3Cl)C(O)C(NC(=O)C(N)CCCCN)C(=O)NC(CC(N)=O)C(=O)NC4C(=O)NC3C(=O)NC2C(=O)NC(C(=O)O)c2cc(O)cc(O)c2-c2cc3ccc2O)CC(C)(N)C1O (stereo not drawn) [Example 23]")
1
>>> number("CC1OC(OC2c3ccc(c(Cl)c3)Oc3cc4cc(c3OC3OC(CO)C(O)C(O)C3OC3CC(C)(NCc5ccc(-c6ccccc6)cc5)C(O)C(C)O3)Oc3ccc(cc3Cl)C(O)C(NC(=O)C3CCCN3)C(=O)NC(CC(N)=O)C(=O)NC4C(=O)NC3C(=O)NC2C(=O)NC(C(=O)O)c2cc(O)cc(O)c2-c2cc3ccc2O)CC(C)(N)C1O (stereo not drawn) [Example 32]")
0.125

Qu. Write down minimal inhibitory concentration (MIC), SH 105 measured for item CC(C)CC(NCc1ccc(-c2ccccc2)cc1)C(=O)NC1C(=O)NC(CC(N)=O)C(=O)NC2C(=O)NC3C(=O)NC(C(=O)NC(C(=O)O)c4cc(O)cc(O)c4-c4cc3ccc4O)C(OC3CC(C)(N)C(O)C(C)O3)c3ccc(c(Cl)c3)Oc3cc2cc(c3OC2OC(CO)C(O)C(O)C2OC2CC(C)(NCc3ccc(-c4ccccc4)cc3)C(O)C(C)O2)Oc2ccc(cc2Cl)C1O (stereo not drawn) [Example 35]
Ans. 0.5

---

# Test system: Staphylococcus aureus SA1199
# methodNotes: MIC, standard broth micro-dilution assay, SA 1199
# Format: cell-based
# Experimental: The antibacterial efficacy of the present compounds is illustrated by Table III. The minimal inhibitory concentrations (MICs) were determined using a standard broth micro-dilution assay.
endpoint: minimal inhibitory concentration (MIC), SA 1199
Give your answer as a number; write no unit.

>>> number("CSCCC(NC(=O)OC(C)(C)C)C(=O)NC1C(=O)NC(CC(N)=O)C(=O)NC2C(=O)NC3C(=O)NC(C(=O)NC(C(=O)O)c4cc(O)cc(O)c4-c4cc3ccc4O)C(OC3CC(C)(N)C(O)C(C)O3)c3ccc(c(Cl)c3)Oc3cc2cc(c3OC2OC(CO)C(O)C(O)C2OC2CC(C)(NCc3ccc(-c4ccccc4)cc3)C(O)C(C)O2)Oc2ccc(cc2Cl)C1O (centres unmarked)")
2

Consider the additional compound presented here.
Qu. Determine from records and report minimal inhibitory concentration (MIC), SA 1199 for CC1OC(OC2c3ccc(c(Cl)c3)Oc3cc4cc(c3OC3OC(CO)C(O)C(O)C3OC3CC(C)(NCc5ccc(-c6ccccc6)cc5)C(O)C(C)O3)Oc3ccc(cc3Cl)C(O)C(NC(=O)C(CCCCNC(=O)OC(C)(C)C)NC(=O)OC(C)(C)C)C(=O)NC(CC(N)=O)C(=O)NC4C(=O)NC3C(=O)NC2C(=O)NC(C(=O)O)c2cc(O)cc(O)c2-c2cc3ccc2O)CC(C)(N)C1O (centres unmarked) [Example 19]
Ans. 2

---

compounds and their reported minimal inhibitory concentration (MIC), EG 245
# System: Enterococcus gallinarum 245
# methodNotes: MIC, standard broth micro-dilution assay, EG 245
# Type: cell-based
Please reply with the number alone, leaving off any unit.

Reference set, count: 3
>>> number("CC(C)CC(NCc1ccc(-c2ccccc2)cc1)C(=O)NC1C(=O)NC(CC(N)=O)C(=O)NC2C(=O)NC3C(=O)NC(C(=O)NC(C(=O)O)c4cc(O)cc(O)c4-c4cc3ccc4O)C(OC3CC(C)(N)C(O)C(C)O3)c3ccc(c(Cl)c3)Oc3cc2cc(c3OC2OC(CO)C(O)C(O)C2OC2CC(C)(NCc3ccc(-c4ccccc4)cc3)C(O)C(C)O2)Oc2ccc(cc2Cl)C1O (stereo not drawn) [Example 35]")
1
>>> number("CC(C)CC(N)C(=O)NC1C(=O)NC(CC(N)=O)C(=O)NC2C(=O)NC3C(=O)NC(C(=O)NC(C(=O)O)c4cc(O)cc(O)c4-c4cc3ccc4O)C(OC3CC(C)(N)C(O)C(C)O3)c3ccc(c(Cl)c3)Oc3cc2cc(c3OC2OC(CO)C(O)C(O)C2OC2CC(C)(NCc3ccc(-c4ccccc4)cc3)C(O)C(C)O2)Oc2ccc(cc2Cl)C1O (stereo not drawn) [Example 27]")
0.5
>>> number("CC1OC(OC2c3ccc(c(Cl)c3)Oc3cc4cc(c3OC3OC(CO)C(O)C(O)C3OC3CC(C)(NCc5ccc(-c6ccccc6)cc5)C(O)C(C)O3)Oc3ccc(cc3Cl)C(O)C(NC(=O)C3CCCN3)C(=O)NC(CC(N)=O)C(=O)NC4C(=O)NC3C(=O)NC2C(=O)NC(C(=O)O)c2cc(O)cc(O)c2-c2cc3ccc2O)CC(C)(N)C1O (stereo not drawn) [Example 32]")
0.5

Qu. Report minimal inhibitory concentration (MIC), EG 245 for CC(C)CC(NC(=O)OC(C)(C)C)C(=O)NC1C(=O)NC(CC(N)=O)C(=O)NC2C(=O)NC3C(=O)NC(C(=O)NC(C(=O)O)c4cc(O)cc(O)c4-c4cc3ccc4O)C(OC3CC(C)(N)C(O)C(C)O3)c3ccc(c(Cl)c3)Oc3cc2cc(c3OC2OC(CO)C(O)C(O)C2OC2CC(C)(NCc3ccc(-c4ccccc4)cc3)C(O)C(C)O2)Oc2ccc(cc2Cl)C1O (stereo not drawn) [Example 18]
Ans. 1

Qu. Please report the measured minimal inhibitory concentration (MIC), EG 245 for CC(C)C[C@@H](N)C(=O)N[C@H]1C(=O)N[C@@H](CC(N)=O)C(=O)N[C@H]2C(=O)N[C@H]3C(=O)NC(C(=O)N[C@H](C(=O)O)c4cc(O)cc(O)c4-c4cc3ccc4O)[C@H](OC3CC(C)(N)C(O)C(C)O3)c3ccc(c(Cl)c3)Oc3cc2cc(c3OC2OC(CO)C(O)C(O)C2OC2CC(C)(N)C(O)C(C)O2)Oc2ccc(cc2Cl)[C@H]1O (stereo partly drawn) [Example 17]
Ans. 0.06

Qu. Using known records, supply minimal inhibitory concentration (MIC), EG 245 for CC1OC(OC2C(Oc3c4cc5cc3Oc3ccc(cc3Cl)[C@@H](O)[C@@H](NC(=O)CCCCCCCc3ccccc3)C(=O)N[C@@H](CC(N)=O)C(=O)N[C@H]5C(=O)N[C@H]3C(=O)NC(C(=O)N[C@H](C(=O)O)c5cc(O)cc(O)c5-c5cc3ccc5O)[C@H](OC3CC(C)(N)C(O)C(C)O3)c3ccc(c(Cl)c3)O4)OC(CO)C(O)C2O)CC(C)(N)C1O (stereo partly drawn) [Example 2]
Ans. 0.25

---

# System: Enterococcus gallinarum 245
# methodNotes: MIC, standard broth micro-dilution assay, EG 245
# Assay type: cell-based
endpoint: minimal inhibitory concentration (MIC), EG 245
Simply state the number, no unit and no words.

>>> number("CC1OC(OC2C(Oc3c4cc5cc3Oc3ccc(cc3Cl)[C@@H](O)[C@@H](NC(=O)[C@H]3CCCN3C(=O)OC(C)(C)C)C(=O)N[C@@H](CC(N)=O)C(=O)N[C@H]5C(=O)N[C@H]3C(=O)NC(C(=O)N[C@H](C(=O)O)c5cc(O)cc(O)c5-c5cc3ccc5O)[C@H](OC3CC(C)(N)C(O)C(C)O3)c3ccc(c(Cl)c3)O4)OC(CO)C(O)C2O)CC(C)(N)C1O (some centres unmarked)")
8

Qu. Name the recorded minimal inhibitory concentration (MIC), EG 245 of the molecule listed here: CC1OC(OC2c3ccc(c(Cl)c3)Oc3cc4cc(c3OC3OC(CO)C(O)C(O)C3OC3CC(C)(NCc5ccc(-c6ccccc6)cc5)C(O)C(C)O3)Oc3ccc(cc3Cl)C(O)C(NC(=O)C(N)CCCCN)C(=O)NC(CC(N)=O)C(=O)NC4C(=O)NC3C(=O)NC2C(=O)NC(C(=O)O)c2cc(O)cc(O)c2-c2cc3ccc2O)CC(C)(N)C1O (centres unmarked) [Example 23]
Ans. 0.125

---

# Test system: Staphylococcus aureus 447
# methodNotes: MIC, standard broth micro-dilution assay, SA 447
# Assay type: cell-based
minimal inhibitory concentration (MIC), SA 447 overview
Output spec: single numeric token, no unit.

>>> number("CC1OC(OC2c3ccc(c(Cl)c3)Oc3cc4cc(c3OC3OC(CO)C(O)C(O)C3OC3CC(C)(NCc5ccc(-c6ccccc6)cc5)C(O)C(C)O3)Oc3ccc(cc3Cl)C(O)C(NC(=O)C3CCCN3)C(=O)NC(CC(N)=O)C(=O)NC4C(=O)NC3C(=O)NC2C(=O)NC(C(=O)O)c2cc(O)cc(O)c2-c2cc3ccc2O)CC(C)(N)C1O (stereo not drawn) [Example 32]")
1
>>> number("CC1OC(OC2c3ccc(c(Cl)c3)Oc3cc4cc(c3OC3OC(CO)C(O)C(O)C3OC3CC(C)(NCc5ccc(-c6ccccc6)cc5)C(O)C(C)O3)Oc3ccc(cc3Cl)C(O)C(NC(=O)c3ccc(-c5ccccc5)cc3)C(=O)NC(CC(N)=O)C(=O)NC4C(=O)NC3C(=O)NC2C(=O)NC(C(=O)O)c2cc(O)cc(O)c2-c2cc3ccc2O)CC(C)(N)C1O (stereo not drawn)")
2
>>> number("CC(C)CC(NC(=O)OC(C)(C)C)C(=O)NC1C(=O)NC(CC(N)=O)C(=O)NC2C(=O)NC3C(=O)NC(C(=O)NC(C(=O)O)c4cc(O)cc(O)c4-c4cc3ccc4O)C(OC3CC(C)(N)C(O)C(C)O3)c3ccc(c(Cl)c3)Oc3cc2cc(c3OC2OC(CO)C(O)C(O)C2O)Oc2ccc(cc2Cl)C1O (stereo not drawn)")
16
>>> number("CC1OC(OC2c3ccc(c(Cl)c3)Oc3cc4cc(c3OC3OC(CO)C(O)C(O)C3OC3CC(C)(NCc5ccc(-c6ccccc6)cc5)C(O)C(C)O3)Oc3ccc(cc3Cl)C(O)C(NC(=O)CCCCCCCc3ccccc3)C(=O)NC(CC(N)=O)C(=O)NC4C(=O)NC3C(=O)NC2C(=O)NC(C(=O)O)c2cc(O)cc(O)c2-c2cc3ccc2O)CC(C)(N)C1O (stereo not drawn)")
1
>>> number("CC1OC(OC2c3ccc(c(Cl)c3)Oc3cc4cc(c3OC3OC(CO)C(O)C(O)C3OC3CC(C)(NCc5ccc(-c6ccccc6)cc5)C(O)C(C)O3)Oc3ccc(cc3Cl)C(O)C(NC(=O)C(N)CCCCN)C(=O)NC(CC(N)=O)C(=O)NC4C(=O)NC3C(=O)NC2C(=O)NC(C(=O)O)c2cc(O)cc(O)c2-c2cc3ccc2O)CC(C)(N)C1O (stereo not drawn) [Example 31]")
2

Qu. Please report the measured minimal inhibitory concentration (MIC), SA 447 for CC(C)CC(NC(=O)OC(C)(C)C)C(=O)NC1C(=O)NC(CC(N)=O)C(=O)NC2C(=O)NC3C(=O)NC(C(=O)NC(C(=O)O)c4cc(O)cc(O)c4-c4cc3ccc4O)C(OC3CC(C)(N)C(O)C(C)O3)c3ccc(c(Cl)c3)Oc3cc2cc(c3OC2OC(CO)C(O)C(O)C2OC2CC(C)(NCc3ccc(-c4ccccc4)cc3)C(O)C(C)O2)Oc2ccc(cc2Cl)C1O (stereo not drawn) [Example 18]
Ans. 0.5

// data source = patent US6670446B1
